# target system: human α-thrombin (human, UniProt P00734)
# procedure text: inhibition of thrombin-mediated hydrolysis of Tosyl-Gly-Pro-Arg-AMC (fluorogenic amidolytic assay)
Non-standard residues stand in square brackets, D forms with d.
quantity kind: Ki (nM)
The reply should be a number in nM, with the unit left off.

Take a look at these entries with their results.
binder	reported
Ac-[dF]PR[(CH2)4CO][NH‑CH2‑CH:CH‑CH2‑CO]DFEPIPL-OH [P183 (SEQ ID NO:5)]	300
Ac-[dF]PR[(CH2)4CO][NH‑CH2‑CH:CH‑CH2‑CO][NH‑CH2‑CH:CH‑CH2‑CO][NH‑CH2‑CH:CH‑CH2‑CO]DFEPIPL-OH [P185 (SEQ ID NO:7)]	3.2

Turning now to a further binder:
Given item Ac-[dF]PR[(CH2)4CO][NH‑CH2‑CH:CH‑CH2‑CO][NH‑CH2‑CH:CH‑CH2‑CO]DFEPIPL-OH [P184 (SEQ ID NO:6) (BCH-1710)] , the value recorded as its Ki is 3.5
